Reference for the values: paper PMC12371494

Study target: GST-YTHDF2 (Homo sapiens, UniProt Q9Y5A9)
Construct: made in house
Sequence (Q9Y5A9 whole entry): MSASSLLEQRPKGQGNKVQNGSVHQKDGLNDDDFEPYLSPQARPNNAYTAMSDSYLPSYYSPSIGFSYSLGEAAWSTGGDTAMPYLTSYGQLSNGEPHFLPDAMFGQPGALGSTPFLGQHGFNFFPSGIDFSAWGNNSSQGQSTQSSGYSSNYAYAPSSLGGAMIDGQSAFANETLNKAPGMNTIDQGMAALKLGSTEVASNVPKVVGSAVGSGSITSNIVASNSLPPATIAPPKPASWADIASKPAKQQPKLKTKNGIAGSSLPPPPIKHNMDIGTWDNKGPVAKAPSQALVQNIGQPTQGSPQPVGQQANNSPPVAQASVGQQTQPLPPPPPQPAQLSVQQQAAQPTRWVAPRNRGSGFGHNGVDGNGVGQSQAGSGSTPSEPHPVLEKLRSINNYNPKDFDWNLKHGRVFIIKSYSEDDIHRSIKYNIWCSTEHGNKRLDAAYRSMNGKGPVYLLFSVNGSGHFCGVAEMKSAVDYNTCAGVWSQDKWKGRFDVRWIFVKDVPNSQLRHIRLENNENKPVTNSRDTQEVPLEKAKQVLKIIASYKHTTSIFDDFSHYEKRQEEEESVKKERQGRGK
Protocol description: HTRF-based binding assay, competition with m6A-oligoRNA, DF2
Condition parameters: HTRF, 100 µM compound, normalized
Readout kind: Single-dose residual signal at 100 µM, DF2 (%)
Supply the numeric figure in %, leaving out any unit text.

// worked examples, Single-dose residual signal at 100 µM, DF2 included
>>> df
                                   compound                              study_target  u  measured_value
0  O=C(O)c1ccc(-c2csc3[nH]c(=S)[nH]c(=O)c23)cc1  GST-YTHDF2 (Homo sapiens, UniProt Q9Y5A9)  %               4
1        CC(=O)c1sc2[nH]c(=S)[nH]c(=O)c2c1C  GST-YTHDF2 (Homo sapiens, UniProt Q9Y5A9)  %               3
2  COC(=O)c1ccc(-c2csc3[nH]c(=S)[nH]c(=O)c23)cc1  GST-YTHDF2 (Homo sapiens, UniProt Q9Y5A9)  %               4
3  Cc1c(C(C)O)sc2[nH]c(=S)[nH]c(=O)c12 (racemic)  GST-YTHDF2 (Homo sapiens, UniProt Q9Y5A9)  %               9
4         NC(=O)c1csc2[nH]c(=S)[nH]c(=O)c12  GST-YTHDF2 (Homo sapiens, UniProt Q9Y5A9)  %              13
5  Cc1c(-c2ccc(N)cc2)sc2[nH]c(=S)[nH]c(=O)c12  GST-YTHDF2 (Homo sapiens, UniProt Q9Y5A9)  %               0

q: Suppose we examine the compound `Cc1c(C(=O)NCc2ccccc2)sc2[nH]c(=S)[nH]c(=O)c12` ; what Single-dose residual signal at 100 µM, DF2 value has been reported?
a: 5

q: Report Single-dose residual signal at 100 µM, DF2 for `O=C(O)c1csc2[nH]c(=S)[nH]c(=O)c12` please.
a: 14

q: # get_value(readout='Single-dose residual signal at 100 µM, DF2', item= `Cc1c(C(=O)NCCCCO)sc2[nH]c(=S)[nH]c(=O)c12` )
a: 9

q: GET /values?readout=Single-dose residual signal at 100 µM, DF2&item= `O=c1[nH]c(=S)[nH]c2scc(C3CCCCC3)c12`
a: 12

q: Entry `Cc1c(C(=O)NCc2cccc(C(=O)O)c2)sc2[nH]c(=S)[nH]c(=O)c12` : reported Single-dose residual signal at 100 µM, DF2 = ?
a: 3

q: Quick check: Single-dose residual signal at 100 µM, DF2 of `O=c1[nH]c(=S)[nH]c2sc(Cc3ccccc3)cc12` ?
a: 13

* * *

Study target: GST-YTHDF2 (Homo sapiens)
Construct: made in house
Protocol description: HTRF-based binding assay, competition with m6A-oligoRNA, DF2
Condition parameters: dose-response, competitor m6A-oligoRNA; read-out: DF2 IC50 (HTRF assay)
pIC50: −log10 of the molar value.
Note to self: values exactly at 5 are satisfied. So pIC50 at or above 5 is satisfied, below is not satisfied.

// below: answered compounds
In [3]: df
Out[3]:
                  compound_structure_string  assigned_label
0  Cc1c(C(=O)NCCCC(=O)O)sc2[nH]c(=S)[nH]c(=O)c12   not satisfied
1      CCOC(=O)c1sc2[nH]c(=S)[nH]c(=O)c2c1C       satisfied
2                  CNc1cc(=O)[nH]c(=O)[nH]1   not satisfied
3  Cc1c(-c2ccc([N+](=O)[O-])cc2)sc2[nH]c(=S)[nH]c(=O)c12       satisfied
4      O=C(CCc1n[nH]c(=S)[nH]c1=O)Nc1ccccc1   not satisfied

q: Evaluate `NC(=O)c1csc2[nH]c(=S)[nH]c(=O)c12` : pIC50 at minimum 5?
a: not satisfied

q: Given the entry `Cc1c(C(=O)O)sc2[nH]c(=S)[nH]c(=O)c12` , answer whether its pIC50 meets or surpasses 5.
a: not satisfied

q: Given the entry `Cc1csc2[nH]c(=S)[nH]c(=O)c12` , answer whether its pIC50 meets or surpasses 5.
a: not satisfied

q: # bool: pIC50 of `CCOC(=O)c1ccc(-c2cc3c(=O)[nH]c(=S)[nH]c3s2)cc1` >= 5
a: not satisfied

q: Does the reported pIC50 for `O=c1[nH]c(=S)[nH]c2sc(Cc3ccccc3)cc12` fall at or above the 5 mark?
a: not satisfied
